src = PubChem BioAssay AID1347416

Assay: qHTS Validation assay for Inhibitors of Plasmodium falciparum Dd2 growth in vitro; also: nearly all actives have a fitted effect of over 70% in size; also: potency is read from the fitted curve at half-maximal effect
Details: P. falciparum Dd2 in RBCs, SYBR Green growth, 72 h; series mostly up to 28.7 µM
Screen size: about 4,100 compounds; about 1,600 (39%) were called active. Another 25% or so got no clear call; they are omitted. The list shows a part of the results.
measuredQuantity: Potency

Sample records with Potency:
{"columns": ["molecule", "measuredQuantity", "observedResult"],
 "data": [
  ["O=C(NC[C@H]1C[C@@H]2CCN1C[C@@H]2CN1CCC(Cc2ccccc2)CC1)c1ccccc1", "Potency", "7.69 µM (active)"],
  ["COc1cc2c(cc1OCc1ccccc1)N([S+](=O)([O-])c1cccnc1)CC21CCN(C)CC1", "Potency", "10.6 µM (active)"],
  ["C=CC1CN2CCC1CC2C(OC(C)=O)c1ccnc2ccc(OC)cc12 (stereo unspecified)", "Potency", "1.68 µM (active)"],
  ["CC(C)N1CC=C(c2c[nH]c3ccccc23)CC1", "Potency", "10.6 µM (active)"],
  ["COc1cc2c(cc1Oc1ccccc1)NC(=O)C21CCN(c2cnccn2)CC1", "Potency", "2.17 µM (active)"],
  ["CC(C)c1ccc(O)c(CN2CCN(c3ccccc3)CC2)c1", "Potency", "1.33 µM (active)"],
  ["COC(=O)C(C)Oc1cc(C)cc2oc(=O)c3c(c12)CCC3 (stereo unspecified)", "Potency", "inactive"],
  ["CCN1CC=C(c2c[nH]c3ccccc23)CC1", "Potency", "4.22 µM (active)"]
]}

Please give the measured Potency for this molecule: CCN(CC)C1=NC(=[N+](CC)CC)c2ccccc21 5.31 µM (active)

What value of Potency has been recorded for this entry: Oc1c(Br)cc(Br)cc1CN1CCN(Cc2ccccc2)CC1 1.06 µM (active)

Potency for COc1cc2c(cc1Oc1ccccc1)NC(=O)C21CCN(C(=O)c2ccccc2)CC1 ? inactive
